Biological target: Cad1 (UniProt P24813)
Sequence: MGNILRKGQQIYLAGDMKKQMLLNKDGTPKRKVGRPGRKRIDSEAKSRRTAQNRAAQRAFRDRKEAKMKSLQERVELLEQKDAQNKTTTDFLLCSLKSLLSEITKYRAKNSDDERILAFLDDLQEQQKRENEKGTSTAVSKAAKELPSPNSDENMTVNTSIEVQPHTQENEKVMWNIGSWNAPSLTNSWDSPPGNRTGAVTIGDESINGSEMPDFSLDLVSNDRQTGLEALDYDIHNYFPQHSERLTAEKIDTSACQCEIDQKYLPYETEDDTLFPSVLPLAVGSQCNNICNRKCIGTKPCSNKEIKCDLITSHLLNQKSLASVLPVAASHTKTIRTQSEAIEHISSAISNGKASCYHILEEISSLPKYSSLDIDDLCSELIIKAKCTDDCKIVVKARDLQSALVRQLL
Experiment: PBM E-score (8-mer binding enrichment) (E-score (-0.5 to 0.5)); higher = stronger / more preferred TF binding
Conditions: protein concentration: 100 nM; construct: GST-full length
The full ranking holds about 33,000 sequences; the median of “E-score (-0.5 to 0.5)” is about -0.0014, and the highest 2% start at about 0.25. The full list was thinned out, with the highest values kept by preference.
Assay Metric: PBM E-score

>>> print(df.to_string())
    sequence_content  test_value
 0          TATGCGCA      0.0953
 1          ACTCGTAT      0.0214
 2          AATCCGGC       0.104
 3          ATCATAAC       0.273
 4          GATTGAGC      0.0444
 5          AAAAGAAG      0.0683
 6          CGACAGCA      0.0252
 7          ACTAGATA      0.0286
 8          TAAGTCCA      0.0496
 9          ATGAGCCA       0.107
10          ACTAGGAT     -0.0418
11          ACCAACGT      0.0535
12          ACACCTGC      0.0761
13          CTTCCGGA      0.0325
14          AGATTACC       0.107
15          AGAGAATA      0.0902
16          GCCGCAAC      0.0201
17          CTTCGTAA      0.0607
18          ATAAGAAT       0.284
19          CTTATACC      0.0668
20          TACAACTA      0.0174
21          GGAGCGTA      0.0102
22          AATCTGGC      -0.102
23          CGCGTACA      -0.008
24          GGATTACA      0.0354
25          TACCCAGA       0.109
26          CCCTTGGA     0.00683
27          ATCATAAT       0.144
28          AATCCGAA     -0.0355
29          ACTGTAGC      -0.136
30          GGCATTGA     -0.0489
31          AGGCAAAC      -0.106
32          ATAAGATC      0.0938
33          CCAAGACC     -0.0342
34          AATCCGGG     -0.0636
35          ATAAGAAC       0.205
36          ATTCCGGA       0.254
37          GGATCGAA       0.045
38          AAATTACA       0.191
39          ACCCGGCG       -0.12
40          CGATTACA       0.197
41          ATCCTAGA     -0.0558
42          ACGGCTGA      0.0503
43          AAAAGAAC       0.118
44          GCAAGAAC      0.0479
45          ACCGCGCG       0.225
